Neuronal survival (% of control) reference
system: rat primary cortical neurones; assay: Pre-treatment against glutamate-induced damage (LDH) in cortical neurones; type: cell-based; settings: 10 nM, 24 h before and 24 h after glutamate 100 μM 10 min
reported metric: Neuronal survival (% of control)

* C[C@H]1CC[C@@]2(OC1)O[C@H]1C[C@H]3[C@@H]4CC[C@@H]5C[C@H](O)CC[C@]5(C)[C@H]4CC[C@]3(C)[C@H]1[C@@H]2C [episarsasapogenin] | 83.80 ± 4.18 % of control
* C[C@@H]1CC[C@@]2(OC1)O[C@H]1C[C@H]3[C@@H]4CC[C@@H]5C[C@H](O)CC[C@]5(C)[C@H]4CC[C@]3(C)[C@H]1[C@@H]2C [epismilagenin] | 78.57 ± 2.15 % of control
* C[C@H]1CC[C@@]2(OC1)O[C@H]1C[C@H]3[C@@H]4CC[C@@H]5C[C@@H](O)CC[C@]5(C)[C@H]4CC[C@]3(C)[C@H]1[C@@H]2C | 73.50 ± 3.05 % of control
* C[C@@H]1CC[C@@]2(OC1)O[C@H]1C[C@H]3[C@@H]4CC[C@@H]5C[C@@H](O)CC[C@]5(C)[C@H]4CC[C@]3(C)[C@H]1[C@@H]2C | 82.50 ± 1.00 % of control
* C[C@@H]1CC[C@@]2(OC1)O[C@H]1C[C@H]3[C@@H]4CC=C5C[C@@H](O)CC[C@]5(C)[C@H]4CC[C@]3(C)[C@H]1[C@@H]2C [diosgenin, reference compound] | 66.51 ± 5.13 % of control
